subject-of-test: T1, human interleukin-1 receptor on cells (MRC-5 human embryonic lung fibroblasts; human blood cells) (human, UniProt P14778 18-569)
T1 sequence (looked up): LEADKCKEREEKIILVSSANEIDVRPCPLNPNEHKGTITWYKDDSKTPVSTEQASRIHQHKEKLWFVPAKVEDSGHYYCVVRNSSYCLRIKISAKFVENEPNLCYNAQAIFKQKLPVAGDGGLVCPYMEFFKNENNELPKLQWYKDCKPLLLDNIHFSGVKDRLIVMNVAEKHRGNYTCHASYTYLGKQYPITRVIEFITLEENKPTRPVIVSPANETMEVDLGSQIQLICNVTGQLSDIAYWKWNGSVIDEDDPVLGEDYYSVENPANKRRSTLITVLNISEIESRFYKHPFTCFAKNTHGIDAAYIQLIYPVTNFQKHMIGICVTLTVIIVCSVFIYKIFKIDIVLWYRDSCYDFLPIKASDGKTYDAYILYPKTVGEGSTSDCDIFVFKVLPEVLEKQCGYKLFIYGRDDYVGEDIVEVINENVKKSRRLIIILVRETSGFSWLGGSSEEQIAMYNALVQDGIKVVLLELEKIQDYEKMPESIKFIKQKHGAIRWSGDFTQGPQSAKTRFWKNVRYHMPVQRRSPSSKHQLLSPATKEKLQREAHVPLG
protocol-notes: cell-based or functional assay
I'd be grateful if you could share measured Bioassay (IC50 in relation to 2D8), 2nd experiment for these entries.

Asked: For HUM2/2 (antibody, V domains shown, Humanized variant of 2D8) VH: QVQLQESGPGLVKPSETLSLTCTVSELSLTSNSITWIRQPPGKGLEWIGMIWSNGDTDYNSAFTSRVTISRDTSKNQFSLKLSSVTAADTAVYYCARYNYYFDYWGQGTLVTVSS VL: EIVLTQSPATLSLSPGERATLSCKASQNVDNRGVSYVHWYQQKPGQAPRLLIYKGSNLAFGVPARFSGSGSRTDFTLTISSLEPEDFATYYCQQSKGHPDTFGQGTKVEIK , what is its reported Bioassay (IC50 in relation to 2D8), 2nd experiment?
Given back: 1 relative to 2D8

Asked: Then what about the binder DEI1/8 (antibody, V domains shown) VH: QLQLQESGPGLVKPSQTLSLTCTVSGLSLTSNSITWVRQAPGQGLEWMGMIWSNGDTDYNSAFTSRFTISRDNSKNTLYLQMNSLKTEDTAVYYCARYNYYFDYWGQGTLVTVSS VL: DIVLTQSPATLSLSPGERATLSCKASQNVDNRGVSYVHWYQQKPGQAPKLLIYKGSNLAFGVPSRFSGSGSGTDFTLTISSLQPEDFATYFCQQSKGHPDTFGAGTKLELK ?
Given back: 0.7 relative to 2D8

Asked: Also need DEI5/8 (antibody, human IgG4, kappa, V domains shown, also called combination of HURDIVHv5 and HURDIVKv8) VH: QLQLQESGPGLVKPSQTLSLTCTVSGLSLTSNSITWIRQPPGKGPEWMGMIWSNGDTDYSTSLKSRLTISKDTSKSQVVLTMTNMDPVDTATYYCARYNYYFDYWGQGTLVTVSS VL: DIVLTQSPATLSLSPGERATLSCKASQNVDNRGVSYVHWYQQKPGQAPKLLIYKGSNLAFGVPSRFSGSGSGTDFTLTISSLQPEDFATYFCQQSKGHPDTFGAGTKLELKR , thanks.
Given back: 2.2 relative to 2D8

Asked: Field entry: DEI5/9 (antibody, V domains shown) VH: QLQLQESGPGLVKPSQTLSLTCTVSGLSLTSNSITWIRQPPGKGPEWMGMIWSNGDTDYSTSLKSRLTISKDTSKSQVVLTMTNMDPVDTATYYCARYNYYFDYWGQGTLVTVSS VL: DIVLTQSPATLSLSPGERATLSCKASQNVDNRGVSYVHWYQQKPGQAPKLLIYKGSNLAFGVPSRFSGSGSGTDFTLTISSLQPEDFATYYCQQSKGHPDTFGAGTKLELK
Given back: 2.8 relative to 2D8

Asked: Try this binder next: DEI5/4 (antibody, V domains shown) VH: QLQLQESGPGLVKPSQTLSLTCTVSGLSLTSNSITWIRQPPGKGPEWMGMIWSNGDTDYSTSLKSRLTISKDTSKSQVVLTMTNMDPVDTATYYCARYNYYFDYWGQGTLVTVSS VL: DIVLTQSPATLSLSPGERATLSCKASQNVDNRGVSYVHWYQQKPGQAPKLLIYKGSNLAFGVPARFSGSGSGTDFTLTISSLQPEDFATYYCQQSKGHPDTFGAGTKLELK
Given back: 1.9 relative to 2D8

Asked: And what about the binder DEI4/9 (antibody, V domains shown) VH: QLQLQESGPGLVKPSQTLSLTCTVSGLSLTSNSITWIRQPPGKGPEWMGMIWSNGDTDYNSAFTSRFTISRDNSKNTLYLQMNSLKTEDTAVYYCARYNYYFDYWGQGTLVTVSS VL: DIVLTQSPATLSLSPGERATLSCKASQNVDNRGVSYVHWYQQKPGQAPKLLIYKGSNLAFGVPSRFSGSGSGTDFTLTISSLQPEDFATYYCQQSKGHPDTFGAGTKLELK ?
Given back: 4.1 relative to 2D8

Asked: Param item: DEI4/7 (antibody, V domains shown) VH: QLQLQESGPGLVKPSQTLSLTCTVSGLSLTSNSITWIRQPPGKGPEWMGMIWSNGDTDYNSAFTSRFTISRDNSKNTLYLQMNSLKTEDTAVYYCARYNYYFDYWGQGTLVTVSS VL: DIVLTQSPATLSLSPGERATLSCKASQNVDNRGVSYVHWYQQKPGQAPKLLIYKGSNLAFGVPARFSGSGSGTDFTLTISSLQPEDFATYFCQQSKGHPDTFGAGTKLELK
Given back: 3.5 relative to 2D8

Asked: Try this binder too: DEI4/5 (antibody, V domains shown, also called combination of HURDIVHv4 and HURDIVKv5) VH: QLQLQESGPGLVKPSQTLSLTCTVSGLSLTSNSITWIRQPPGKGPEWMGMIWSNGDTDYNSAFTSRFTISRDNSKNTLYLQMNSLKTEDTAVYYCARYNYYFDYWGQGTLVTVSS VL: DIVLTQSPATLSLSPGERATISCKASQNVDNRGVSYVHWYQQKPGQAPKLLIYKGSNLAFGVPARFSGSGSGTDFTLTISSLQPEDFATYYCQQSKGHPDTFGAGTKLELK
Given back: 4.5 relative to 2D8

Asked: Repeat for the following binder: DEI2/9 (antibody, V domains shown, also called combination of HURDIVHv2 and HURDIVKv9) VH: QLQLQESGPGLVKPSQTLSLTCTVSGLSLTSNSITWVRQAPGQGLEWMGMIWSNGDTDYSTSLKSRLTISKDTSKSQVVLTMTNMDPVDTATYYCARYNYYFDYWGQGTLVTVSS VL: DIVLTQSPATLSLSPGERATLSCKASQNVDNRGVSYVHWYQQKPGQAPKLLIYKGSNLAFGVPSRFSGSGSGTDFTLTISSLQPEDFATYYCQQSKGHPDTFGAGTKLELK
Given back: 2.8 relative to 2D8

Asked: Queued: DEI2/8 (antibody, V domains shown, also called combination of HURDIVHv2 and HURDIVKv8) VH: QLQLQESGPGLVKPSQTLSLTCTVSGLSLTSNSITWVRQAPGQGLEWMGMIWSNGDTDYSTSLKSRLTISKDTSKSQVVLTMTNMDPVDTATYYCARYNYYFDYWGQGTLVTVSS VL: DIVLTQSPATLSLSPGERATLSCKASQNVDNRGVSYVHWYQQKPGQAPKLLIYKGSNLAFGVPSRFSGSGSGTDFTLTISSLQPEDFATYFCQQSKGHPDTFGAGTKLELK
Given back: 1.4 relative to 2D8

Asked: Queued: DEI5/7 (antibody, V domains shown) VH: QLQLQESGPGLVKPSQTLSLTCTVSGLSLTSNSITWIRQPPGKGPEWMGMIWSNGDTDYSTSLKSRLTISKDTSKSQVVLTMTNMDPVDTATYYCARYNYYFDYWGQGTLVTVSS VL: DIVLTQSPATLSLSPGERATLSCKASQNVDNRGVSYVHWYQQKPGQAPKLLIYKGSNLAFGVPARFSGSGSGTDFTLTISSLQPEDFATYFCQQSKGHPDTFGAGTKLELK
Given back: 1.2 relative to 2D8
